Values from paper PMC10052977

Tested on: human red blood cells
test-details: Hemolytic assay
Type: cell-based
assay-conditions: mean (n = 2)
measurement-name: Hemolysis (HC10, concentration at 10% hemolytic activity)

Q) May I ask what Hemolysis (HC10, concentration at 10% hemolytic activity) has been recorded for O=C(CCc1ccccc1)NCCCNCCCCCCCCNCCCNC(=O)CCc1ccccc1.O=C(O)C(F)(F)F.O=C(O)C(F)(F)F [Compound 13d] ?
A) >42.6 µM

Q) Same for O=C(NCCCNCCCCNCCCNC(=O)C(c1ccccc1)(c1ccccc1)c1ccccc1)C(c1ccccc1)(c1ccccc1)c1ccccc1.O=C(O)C(F)(F)F.O=C(O)C(F)(F)F [Compound 17a]
A) 5.57 µM

Q) And O=C(CCc1ccccc1)NCCCNCCCCCCCCCCCCNCCCNC(=O)CCc1ccccc1.O=C(O)C(F)(F)F.O=C(O)C(F)(F)F [Compound 13f] ?
A) >39.7 µM

Q) Quick one: O=C(CC(c1ccccc1)c1ccccc1)NCCCNCCCCCCNCCCNC(=O)CC(c1ccccc1)c1ccccc1.O=C(O)C(F)(F)F.O=C(O)C(F)(F)F [Compound 15b]
A) >36.6 µM

Q) Here is the next molecule: O=C(NCCCNCCCCCCCCCCCCNCCCNC(=O)C(c1ccccc1)(c1ccccc1)c1ccccc1)C(c1ccccc1)(c1ccccc1)c1ccccc1.O=C(O)C(F)(F)F.O=C(O)C(F)(F)F [Compound 17f]
A) ≤0.231 µM

Q) Next molecule: `Cl.Cl.S=C(NCCCNCCCCCCCCNCCCNC(=S)NC(c1ccccc1)c1ccccc1)NC(c1ccccc1)c1ccccc1`
A) 2.07 µM

Q) What about this molecule? O=C(CC(c1ccccc1)c1ccccc1)NCCCNCCCCNCCCNC(=O)CC(c1ccccc1)c1ccccc1.O=C(O)C(F)(F)F.O=C(O)C(F)(F)F [Compound 15a]
A) >37.8 µM

Q) Then O=C(NCCCNCCCCCCNCCCNC(=O)C(c1ccccc1)(c1ccccc1)c1ccccc1)C(c1ccccc1)(c1ccccc1)c1ccccc1.O=C(O)C(F)(F)F.O=C(O)C(F)(F)F [Compound 17b] ?
A) 6.27 µM

Q) And what about the molecule O=C(CCC(=O)NCCC(c1ccccc1)c1ccccc1)NCCCNCCCCNCCCNC(=O)CCC(=O)NCCC(c1ccccc1)c1ccccc1.O=C(O)C(F)(F)F.O=C(O)C(F)(F)F [Compound 16a] ?
A) >31.5 µM

Q) Now consider `Cl.Cl.S=C(NCCCNCCCCCCCCCCNCCCNC(=S)NC(c1ccccc1)c1ccccc1)NC(c1ccccc1)c1ccccc1` .
A) >39.5 µM

Q) Next molecule up: O=C(CCC(=O)NCCCc1ccccc1)NCCCNCCCCCCCCNCCCNC(=O)CCC(=O)NCCCc1ccccc1.O=C(O)C(F)(F)F.O=C(O)C(F)(F)F [Compound 14d]
A) >34.7 µM

* * *

Assign IC50 at 20 h to each entry below.
test-details: Cytotoxicity assay (resazurin)
Type: cell-based, human
assay-conditions: human; HEK293 cells; mean (n = 2); highest dose tested 32 μg/mL; read-out: Cytotoxicity (concentration of compound at 50% cytotoxicity, IC50)
Answer with a number only, understood to be in nM.

Q) Would you mind telling me what IC50 at 20 h value was observed for O=C(NCCCNCCCCNCCCNC(=O)C(c1ccccc1)(c1ccccc1)c1ccccc1)C(c1ccccc1)(c1ccccc1)c1ccccc1.O=C(O)C(F)(F)F.O=C(O)C(F)(F)F [Compound 17a] ?
A) 329

Q) Same question for O=C(CC(c1ccccc1)(c1ccccc1)c1ccccc1)NCCCNCCCCCCCNCCCNC(=O)CC(c1ccccc1)(c1ccccc1)c1ccccc1.O=C(O)C(F)(F)F.O=C(O)C(F)(F)F [Compound 18c] please.
A) 13200

Q) Now consider O=C(CC(c1ccccc1)(c1ccccc1)c1ccccc1)NCCCNCCCCCCCCCCCCNCCCNC(=O)CC(c1ccccc1)(c1ccccc1)c1ccccc1.O=C(O)C(F)(F)F.O=C(O)C(F)(F)F [Compound 18f] and answer again.
A) 409

* * *

Provide the reported IC50 at 20 h of each item.
test-details: Cytotoxicity assay (resazurin)
Assay type: cell-based, human
assay-conditions: human; HEK293 cells; mean (n = 2); highest dose tested 32 μg/mL; read-out: Cytotoxicity (concentration of compound at 50% cytotoxicity, IC50)

Q) For the molecule O=C(NCCCNCCCCCCCCCCCCNCCCNC(=O)C(c1ccccc1)(c1ccccc1)c1ccccc1)C(c1ccccc1)(c1ccccc1)c1ccccc1.O=C(O)C(F)(F)F.O=C(O)C(F)(F)F [Compound 17f] , what IC50 at 20 h is on record?
A) ≤ 0.231 µM

Q) Thanks! And Cl.Cl.S=C(NCCCNCCCCCCNCCCNC(=S)NC(c1ccccc1)c1ccccc1)NC(c1ccccc1)c1ccccc1 [Compound 6b] ?
A) > 42.4 µM

Q) What would you report for Cl.Cl.S=C(NCCCNCCCCCCCCNCCCNC(=S)NC(c1ccccc1)c1ccccc1)NC(c1ccccc1)c1ccccc1 [Compound 6d] ?
A) 10.1 µM

Q) // repeat for O=C(CC(c1ccccc1)c1ccccc1)NCCCNCCCCCCCCCCNCCCNC(=O)CC(c1ccccc1)c1ccccc1.O=C(O)C(F)(F)F.O=C(O)C(F)(F)F [Compound 15e] and report
A) > 34.4 µM

Q) What do you get for O=C(CCC(=O)NCCCc1ccccc1)NCCCNCCCCCCCCNCCCNC(=O)CCC(=O)NCCCc1ccccc1.O=C(O)C(F)(F)F.O=C(O)C(F)(F)F [Compound 14d] ?
A) > 34.7 µM

Q) Entry O=C(NCCCNCCCCCCNCCCNC(=O)C(c1ccccc1)(c1ccccc1)c1ccccc1)C(c1ccccc1)(c1ccccc1)c1ccccc1.O=C(O)C(F)(F)F.O=C(O)C(F)(F)F [Compound 17b] please
A) ≤ 0.25 µM

Q) How about this molecule: O=C(CC(c1ccccc1)(c1ccccc1)c1ccccc1)NCCCNCCCCCCCCCCNCCCNC(=O)CC(c1ccccc1)(c1ccccc1)c1ccccc1.O=C(O)C(F)(F)F.O=C(O)C(F)(F)F [Compound 18e]
A) 7.23 µM

Q) Here is the next molecule: O=C(CCc1ccccc1)NCCCNCCCCCCCCNCCCNC(=O)CCc1ccccc1.O=C(O)C(F)(F)F.O=C(O)C(F)(F)F [Compound 13d]
A) > 42.6 µM

Q) Again, but for O=C(CCC(=O)NCCC(c1ccccc1)c1ccccc1)NCCCNCCCCNCCCNC(=O)CCC(=O)NCCC(c1ccccc1)c1ccccc1.O=C(O)C(F)(F)F.O=C(O)C(F)(F)F [Compound 16a]
A) > 31.5 µM

Q) Next: O=C(NCCCNCCCCCCCCCCNCCCNC(=O)C(c1ccccc1)(c1ccccc1)c1ccccc1)C(c1ccccc1)(c1ccccc1)c1ccccc1.O=C(O)C(F)(F)F.O=C(O)C(F)(F)F [Compound 17e]
A) > 30.3 µM

Q) One more molecule: O=C(CCC(=O)NCCC(c1ccccc1)c1ccccc1)NCCCNCCCCCCCCNCCCNC(=O)CCC(=O)NCCC(c1ccccc1)c1ccccc1.O=C(O)C(F)(F)F.O=C(O)C(F)(F)F [Compound 16d]
A) > 29.8 µM

* * *

measurement-name: melting point

Q) # melting point lookup, item `Cl.Cl.S=C(NCCCNCCCCCCCCCCCCNCCCNC(=S)NC(c1ccccc1)c1ccccc1)NC(c1ccccc1)c1ccccc1`
A) 103 to 104 °C

Q) Ok, now `O=C(O)CCC(=O)NCCC(c1ccccc1)c1ccccc1`
A) 134 to 137 °C

Q) And the next one, `Cl.Cl.S=C(NCCCNCCCCCCCNCCCNC(=S)NC(c1ccccc1)c1ccccc1)NC(c1ccccc1)c1ccccc1` ?
A) 115 to 116 °C

Q) How about this compound: `Cl.Cl.S=C(NCCCNCCCCNCCCNC(=S)NC(c1ccccc1)c1ccccc1)NC(c1ccccc1)c1ccccc1`
A) 168 to 169 °C

* * *

System: human red blood cells
test-details: Hemolytic assay
Type: cell-based
assay-conditions: mean (n = 2)
Kindly supply the reported Hemolysis (HC10, concentration at 10% hemolytic activity) values for the records listed here.
Give just the numeric value; µM need not be written.

Q) Any idea what its Hemolysis (HC10, concentration at 10% hemolytic activity) is? The molecule is O=C(CC(c1ccccc1)(c1ccccc1)c1ccccc1)NCCCNCCCCNCCCNC(=O)CC(c1ccccc1)(c1ccccc1)c1ccccc1.O=C(O)C(F)(F)F.O=C(O)C(F)(F)F [Compound 18a]
A) 1.58

Q) Then O=C(CC(c1ccccc1)(c1ccccc1)c1ccccc1)NCCCNCCCCCCNCCCNC(=O)CC(c1ccccc1)(c1ccccc1)c1ccccc1.O=C(O)C(F)(F)F.O=C(O)C(F)(F)F [Compound 18b] ?
A) 0.985

Q) Similarly, O=C(CCC(=O)NCCC(c1ccccc1)c1ccccc1)NCCCNCCCCCCCCCCCCNCCCNC(=O)CCC(=O)NCCC(c1ccccc1)c1ccccc1 [Compound 16f] ?
A) 3.17

Q) Try this molecule too: O=C(NCCCNCCCCCCCCNCCCNC(=O)C(c1ccccc1)(c1ccccc1)c1ccccc1)C(c1ccccc1)(c1ccccc1)c1ccccc1.O=C(O)C(F)(F)F.O=C(O)C(F)(F)F [Compound 17d]
A) 0.719

Q) Next molecule up: Cl.Cl.S=C(NCCCNCCCCNCCCNC(=S)NC(c1ccccc1)c1ccccc1)NC(c1ccccc1)c1ccccc1 [Compound 6a]
A) 7.73

Q) Would you mind doing O=C(CC(c1ccccc1)(c1ccccc1)c1ccccc1)NCCCNCCCCCCCCNCCCNC(=O)CC(c1ccccc1)(c1ccccc1)c1ccccc1.O=C(O)C(F)(F)F.O=C(O)C(F)(F)F [Compound 18d] as well?
A) 3.17

Q) // next record O=C(NCCCNCCCCCCCNCCCNC(=O)C(c1ccccc1)(c1ccccc1)c1ccccc1)C(c1ccccc1)(c1ccccc1)c1ccccc1.O=C(O)C(F)(F)F.O=C(O)C(F)(F)F [Compound 17c]
A) 8.16

Q) Another molecule to check: O=C(CC(c1ccccc1)(c1ccccc1)c1ccccc1)NCCCNCCCCCCCNCCCNC(=O)CC(c1ccccc1)(c1ccccc1)c1ccccc1.O=C(O)C(F)(F)F.O=C(O)C(F)(F)F [Compound 18c]
A) 3.12

Q) How about this molecule: O=C(CC(c1ccccc1)c1ccccc1)NCCCNCCCCCCCCCCCCNCCCNC(=O)CC(c1ccccc1)c1ccccc1.O=C(O)C(F)(F)F.O=C(O)C(F)(F)F [Compound 15f]
A) 1.17

Q) Now the molecule O=C(CCC(=O)NCCC(c1ccccc1)c1ccccc1)NCCCNCCCCCCCCCCNCCCNC(=O)CCC(=O)NCCC(c1ccccc1)c1ccccc1.O=C(O)C(F)(F)F.O=C(O)C(F)(F)F [Compound 16e]
A) 17.9
